Ref: the supplement of paper PMC9170038

system: MS2 coat protein; test: apparent KD of MS2 coat protein; designed switch direction (-1 OFF switch, 1 ON switch): -1; higher = weaker reporter binding; conditions: input ligand: microRNA oligo, concentration not stated
Measured Attribute: apparent KD of MS2 coat protein (nM)
Report the value in nM with no unit label.

Sample records with apparent KD of MS2 coat protein:
[
  {
    "Seq": "AGAUAGUGCUGAGGAUAUCAGAAUAGAAAGAAAUGAGAAGGCGGACAUGAGGAUCACCCAUGUGAGGUCUUGAGACUACAUGGU [Prohibition 38 - Jieux - Exclusion NG 1] (Eterna round: R96, puzzle: Exclusion NG 1)",
    "Test System": "MS2 coat protein",
    "apparent KD of MS2 coat protein, nM": 65.8
  },
  {
    "Seq": "GGAUAAAACUGAGGAUAUACGCACCACUAACGAGUAGAAGGCAGACAUGAGGAUCACCCAUGUGAGUUCUCAAUAAGAAACACG [Prohibition 66 - Jieux - Exclusion NG 1] (Eterna round: R96, puzzle: Exclusion NG 1)",
    "Test System": "MS2 coat protein",
    "apparent KD of MS2 coat protein, nM": 88.9
  },
  {
    "Seq": "ACAUGAGGAUCACCCAUGUGACCACGAUGGCUGAUGUAGAGCUAGGAUAUGAGUGAAUAUCUAUCUCAGAAGGAGCUUGACUGG [Deportation 49 - Jieux - Exclusion NG 3] (Eterna round: R96, puzzle: Exclusion NG 3)",
    "Test System": "MS2 coat protein",
    "apparent KD of MS2 coat protein, nM": 16.4
  }
]

Now, please, on to the next sequence.
Req: apparent KD of MS2 coat protein lookup needed for UGAUCUAGCGGAGGAUAUACAUGAGGAUCACCCAUGUAGUAGUGAGUACCGUAGUGCUCACUUGUGUAGAAGGCCGCUAGAUCU [JL ENG2 3.60] (Eterna round: R96, puzzle: Exclusion NG 2) , thanks.
Resp: 9.86
